These measurements were taken from PubChem BioAssay AID248.

Test system: L1210 leukemia ip in BDF1 mice, survival T/C
Experiment: NCI In Vivo Anticancer Drug Screen. Data for tumor model L1210 Leukemia (intraperitoneal) in B6D2F1 (BDF1) mice
Conditions: endpoint: mean survival time; dose: 12.5 mg/kg/injection; schedule: Q01DX009 (ip); vehicle: saline; higher = longer survival
Toxic doses and inconclusive results are not listed.
This listing pairs compounds with measured T/C.

>  <Compound>
Nc1cc(N)cc([N+](=O)[O-])c1

>  <T/C>
95 % of control

$$$$
>  <Compound>
CC(C)(C)C#C[P+](C#CC(C)(C)C)(Cc1ccccc1)c1ccccc1

>  <T/C>
99 % of control

$$$$
>  <Compound>
C[N+](C)(C)/N=C\C1CC=CCC1 (stereo unspecified)

>  <T/C>
99 % of control

$$$$
>  <Compound>
O=[N+]([O-])C(CO)(CO)CC(F)(F)F

>  <T/C>
102 % of control

$$$$
>  <Compound>
NCC1CCCCC1

>  <T/C>
105 % of control

$$$$
>  <Compound>
NCC(O)COc1ccccc1N (stereo unspecified)

>  <T/C>
100 % of control

$$$$
>  <Compound>
CN(C)CCC(=O)c1ccccc1

>  <T/C>
101 % of control

$$$$
>  <Compound>
[Cl][Al]([Cl])[Cl]

>  <T/C>
93 % of control

$$$$

Per the record, `C=C(Br)CN=C=S` has T/C of 96 % of control

Per the record, `Nc1cc(I)c2cccnc2c1O` has T/C of 96 % of control

Per the record, `CCc1cccc[n+]1CC(=O)c1ccccc1` has T/C of 98 % of control
